- target.under.test: CYP1A2 (Homo sapiens, UniProt P05177)
- Construct: 0.1 mg/mL protein human liver microsomes (BD Gentest); tissue BD Gentest; host or cells: human liver microsomes
- Sequence (P05177 whole entry): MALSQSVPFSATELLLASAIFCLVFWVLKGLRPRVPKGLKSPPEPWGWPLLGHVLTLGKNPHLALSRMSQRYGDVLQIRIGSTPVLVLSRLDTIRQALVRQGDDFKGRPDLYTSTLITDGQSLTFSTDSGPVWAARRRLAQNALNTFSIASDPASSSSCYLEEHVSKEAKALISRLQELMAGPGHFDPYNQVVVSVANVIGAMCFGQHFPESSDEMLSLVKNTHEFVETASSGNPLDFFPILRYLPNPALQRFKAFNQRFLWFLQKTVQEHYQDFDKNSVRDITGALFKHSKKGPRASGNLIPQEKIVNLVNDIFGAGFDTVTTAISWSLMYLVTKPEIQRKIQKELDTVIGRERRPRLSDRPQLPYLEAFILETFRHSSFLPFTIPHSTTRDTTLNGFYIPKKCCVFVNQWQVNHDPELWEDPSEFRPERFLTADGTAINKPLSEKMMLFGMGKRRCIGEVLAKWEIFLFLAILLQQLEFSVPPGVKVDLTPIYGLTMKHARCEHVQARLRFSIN
- protocol.summary: Cocktail assay for CYPs, phenacetin O-deethylation (CYP1A2), human liver microsomes
- Assay type: biochemical
- protocol.conditions: 10 μM phenacetin, 0.1 mg/mL human liver microsomes, 10 min at 37° C.; read-out: CYP IC50 (nM) 1A2
measured.quantity: IC50

In the examples that follow, each entry is paired with its recorded IC50.
| compound | measured.quantity | result |
| --- | --- | --- |
| COCCn1cncc1-c1ccccc1C1CCCN1S(=O)(=O)c1cnc(NC(C)=O)s1 (stereo not drawn) [Compound 20] | IC50 | > 10000 nM |
| CS(=O)(=O)N1CCCC1c1ccccc1-c1cncn1CCc1ccc(F)cc1 (single isomer, unassigned) [Compound 23b] | IC50 | > 10000 nM |

// IC50 value for O=S(=O)(c1cnc(N2CCN3C[C@H](O)C[C@H]3C2)s1)N1CCc2c(cccc2-c2cncn2CCc2ccc(F)cc2)C1 [Compound 64] : > 10000 nM

// IC50 value for COCCN(C)c1ccc(S(=O)(=O)N2CCc3c(cccc3-c3cncn3CCc3ccc(F)cc3)C2)cn1 [Compound 62] : > 10000 nM

// IC50 value for O=S(=O)(c1ccc(N2CCN(CCO)CC2)nc1)N1CCCC1c1ccccc1-c1cncn1CCc1ccc(F)cc1 (single isomer, unassigned) [Compound 35a] : > 10000 nM

// IC50 value for CC(C)OC(=O)N1CCCC1c1cccc(-c2cncn2CCc2ccc(F)cc2)c1 (stereo not drawn) [Compound 56] : 3400 nM

// IC50 value for O=S(=O)(NCCc1ccccc1-c1cncn1CCc1ccc(F)cc1)c1cccnc1 [Compound 14] : > 10000 nM

// IC50 value for O=C(c1cccnc1)N1CCCC1c1cccc(-c2cncn2CCc2ccc(F)cc2)c1 (single isomer, unassigned) [Compound 48b] : > 10000 nM

// IC50 value for COc1ccc(OC)c(S(=O)(=O)N2CCCC2c2cccc(-c3cncn3CCc3ccc(F)cc3)c2)c1 (single isomer, unassigned) [Compound 53b] : 1470 nM

// IC50 value for O=C(C1CCOCC1)N1CCCC1c1cccc(-c2cncn2CCc2ccc(F)cc2)c1 (single isomer, unassigned) [Compound 49a] : > 10000 nM

// IC50 value for C[C@H](c1ccc(F)cc1)n1cncc1-c1ccc2c(c1)CN(S(=O)(=O)c1cnc(N)s1)CC2 [Compound 2] : 2610 nM

// IC50 value for CN1CCN(c2ncc(S(=O)(=O)N3Cc4cccc(-c5cncn5CCc5ccc(F)cc5)c4C3)s2)CC1 [Compound 16] : 3100 nM

// IC50 value for CC(=O)Nc1ncc(S(=O)(=O)N2CCCC2c2ccccc2-c2cncn2C)s1 (stereo not drawn) [Compound 30] : > 10000 nM

// IC50 value for CN(C)c1ccc(S(=O)(=O)N2CCc3c(cccc3-c3cncn3CCc3ccc(F)cc3)C2)cn1 [Compound 61] : 4620 nM

// IC50 value for O=C(c1cccnc1)N1CCCC1c1ccccc1-c1cncn1CCc1ccc(F)cc1 (single isomer, unassigned) [Compound 42b] : > 10000 nM

// IC50 value for CN1CCN(c2ncc(S(=O)(=O)N3CCCC3c3ccc(-c4cncn4CCc4ccc(F)cc4)cc3)s2)CC1 (stereo not drawn) [Compound 9] : > 10000 nM

// IC50 value for CN(C)c1ccc(S(=O)(=O)N2CCCC2c2ccccc2-c2cncn2CCc2ccc(F)cc2)cn1 (single isomer, unassigned) [Compound 28b] : > 10000 nM

// IC50 value for O=S(=O)(c1cnc(Cl)c(Br)c1)N1CCCC1c1ccccc1-c1cncn1CCc1ccc(F)cc1 (stereo not drawn) [Compound 25] : 9490 nM

// IC50 value for O=C(C1CC1)N1CCCC1c1cccc(-c2cncn2CCc2ccc(F)cc2)c1 (stereo not drawn) [Compound 47] : 2080 nM

// IC50 value for CC(=O)Nc1ncc(S(=O)(=O)N2Cc3cccc(-c4cncn4CCc4ccc(F)cc4)c3C2)s1 [Compound 15] : > 10000 nM
